Below, each entry is listed with its recorded TGI.
system: OVCAR-4 ovarian; test: NCI tumour cell line growth inhibition, 48 h
The reply should be a number in µM, with the unit left off.

>  <MOL_SMILES>
CN(C)CCNC(=O)Cc1ccccc1Nc1c(Cl)cccc1Cl

>  <EXPERIMENTAL_VALUE>
50.6

$$$$
>  <MOL_SMILES>
CCc1c(O)c(O)c(C(C)=O)c2c(O)c(-c3c(C)cc4c(CC)c(O)c(O)c(C(C)=O)c4c3O)c(C)cc12

>  <EXPERIMENTAL_VALUE>
26.5

$$$$
>  <MOL_SMILES>
NC(=O)c1cc(I)ccc1NC(=O)/C=C/c1ccccc1

>  <EXPERIMENTAL_VALUE>
30.5

$$$$

What value of measured TGI is listed for CNCCCNc1ccnc2cc(Cl)ccc12 ?
57.4

###

test system: UO-31 renal; experiment: NCI tumour cell line growth inhibition, 48 h
Where a SMILES comes first, the peptide text is derived from it. The star is where a group is joined. Palmitoyl = CCCCCCCCCCCCCCCC(=O)*
READOUT_NAME: TGI

>  <MOLECULE>
Cc1cc2c(cc1C)[n+](=O)cc(C(=O)C/C(=N/NC(=S)NN)C(=O)Nc1cccc(C(F)(F)F)c1)n2[O-]

>  <TGI>
> 100 µM

$$$$
>  <MOLECULE>
Cc1ccsc1/C=N/Nc1cnccn1

>  <TGI>
> 100 µM

$$$$
>  <MOLECULE>
O=C1C=C(c2c(O)ccc3ccccc23)c2cc(O)ccc2C1=O

>  <TGI>
36.5 µM

$$$$
>  <MOLECULE>
CCN(CC)c1ccc(/C=C/c2ccnc3ccccc23)cc1

>  <TGI>
> 100 µM

$$$$
>  <MOLECULE>
O=C(O)c1cccc(S(=O)(=O)NN2C(=O)CSC2c2ccc(Cl)cc2Cl)c1 (centres undefined)

>  <TGI>
> 100 µM

$$$$
>  <MOLECULE>
C=C(C)[C@H]1C2=CC(C(=O)OC)=C(C[C@H](C(=C)C)[C@@H](O)[C@@H](O)C3=C[C@H]1OC3=O)O2

>  <TGI>
85.6 µM

$$$$
>  <MOLECULE>
O=C(CNc1ccc(Cl)cc1Cl)Nn1c(-c2ccccc2)nc2ccccc2c1=O

>  <TGI>
48.4 µM

$$$$
>  <MOLECULE>
O=Cc1cc2c(cc1-c1cc3c(cc1C=O)OCO3)OCO2

>  <TGI>
> 100 µM

$$$$
>  <MOLECULE>
CC1OC(O[C@H]2C3C=CO[C@@H](OC4OC(CO)C(O)C(O)C4O)C3[C@@]3(COC(=O)/C=C/c4ccccc4)O[C@@H]23)C(O)C(O)C1O (some centres undefined)

>  <TGI>
> 100 µM

$$$$
>  <MOLECULE>
COc1ccc(-c2c(C#N)c(N3CCOCC3)nc3[nH]c(=S)[nH]c(=S)c23)cc1OC

>  <TGI>
> 100 µM

$$$$

What value of measured TGI is listed for COC1OC2COC(c3ccccc3)OC2C(O)C1OC(=S)c1ccccc1 (centres undefined) ?
> 100 µM

What value of measured TGI is listed for CC(C)C1CN(C(=O)OCc2ccccc2)C2N1C(=O)C2(C)OCc1ccccc1 (centres undefined) ?
68.8 µM

What value of measured TGI is listed for CCCCCCCCSC1=C(Cl)C(=O)C(OC)=C(OC)C1=O ?
25.7 µM

What value of measured TGI is listed for CCCCCCCCCCCCCCCC(=O)N1CCCC1C(=O)NCC(=O)NC(Cc1ccccc1)C(=O)N1CCCC1C(=O)NC(CO)C(=O)NC(Cc1ccc(O)cc1)C(=O)NC(CCCCN)C(=O)NC(CC(C)C)C(=O)NC(CCCN=C(N)N)C(=O)N1CCCC1C(=O)NCC(N)=O (centres undefined) (Palmitoyl-PGFPSYKLRPG-NH2; configuration not given here) ?
56.8 µM

What value of measured TGI is listed for COc1ccc(Cl)cc1NC(=O)c1ccc(NC2=C(Cl)C(=O)N(Cc3ccccc3)C2=O)cc1 ?
> 100 µM

What value of measured TGI is listed for C=C(CN(C)C)C(=O)c1ccc(C(=O)C(=C)CN(C)C)cc1 ?
> 100 µM

What value of measured TGI is listed for CC1=C(C(=O)Nc2ccccc2)C(c2ccc(Cl)c(Cl)c2)C(C(=O)Nc2ccccc2)=C(C)N1 ?
26 µM

###

Below, each entry is listed with its recorded GI50.
test system: SF-268 CNS; assay: NCI tumour cell line growth inhibition, 48 h

Sample answers from the record:
>  <COMPOUND>
Cc1nc2sccn2c1-c1nc2sccn2c1/C=C1/C(=O)Nc2ccccc21

>  <EXPERIMENTAL_VALUE>
6.18 µM

$$$$
>  <COMPOUND>
COc1ccc(CNc2c3ccccc3nc3ccccc23)cc1F

>  <EXPERIMENTAL_VALUE>
3.76 µM

$$$$
>  <COMPOUND>
CCN(CCNS(C)(=O)=O)c1ccc(N)c(C)c1

>  <EXPERIMENTAL_VALUE>
11.3 µM

$$$$
>  <COMPOUND>
COc1cc(/C=C2\CCCCC3=C2N=C2SC(C)=CN2C3c2cc(OC)c(OC)c(OC)c2)cc(OC)c1OC (stereo not given)

>  <EXPERIMENTAL_VALUE>
36.7 µM

$$$$

Shift focus to the following entry.
What value of measured GI50 is listed for CCCCCCn1c(-c2ccc(C(=O)O/N=C(\N)c3ccc4c(c3)OCO4)cc2)nc(-c2ccccc2)c1-c1ccccc1 ?
2.11 µM

###

Below, each entry is listed with its recorded TGI.
test system: SW-620 colon; test: NCI tumour cell line growth inhibition, 48 h

Sample answers from the record:
>  <MOLECULE>
FC(F)(F)c1ccc2nc(NCc3ccccc3)c(-c3ccccc3)nc2c1

>  <ASSAY_SYSTEM>
SW-620 colon

>  <READOUT_NAME>
TGI

>  <EXPERIMENTAL_VALUE>
> 100 µM

$$$$
>  <MOLECULE>
O=C(Nc1ncc(Cc2cccc(C(F)(F)F)c2)s1)c1ccc2c(c1)OCCO2

>  <ASSAY_SYSTEM>
SW-620 colon

>  <READOUT_NAME>
TGI

>  <EXPERIMENTAL_VALUE>
> 100 µM

$$$$
>  <MOLECULE>
COc1ccc(-c2c(C#N)c(N3CCOCC3)nc3[nH]c(=S)[nH]c(=S)c23)cc1OC

>  <ASSAY_SYSTEM>
SW-620 colon

>  <READOUT_NAME>
TGI

>  <EXPERIMENTAL_VALUE>
> 100 µM

$$$$
>  <MOLECULE>
COc1cc2c3c(n(C)c(=O)c2cc1OC)-c1cc2c(cc1C3=O)OCO2

>  <ASSAY_SYSTEM>
SW-620 colon

>  <READOUT_NAME>
TGI

>  <EXPERIMENTAL_VALUE>
> 100 µM

$$$$
>  <MOLECULE>
Nc1ncc2c(n1)-c1ccccc1OC2N1CCCC1 (stereo unspecified)

>  <ASSAY_SYSTEM>
SW-620 colon

>  <READOUT_NAME>
TGI

>  <EXPERIMENTAL_VALUE>
> 100 µM

$$$$
>  <MOLECULE>
O[C@H]1[C@H](O)[C@@H](O)CN2CC[C@H](O)[C@H]12

>  <ASSAY_SYSTEM>
SW-620 colon

>  <READOUT_NAME>
TGI

>  <EXPERIMENTAL_VALUE>
> 100 µM

$$$$
>  <MOLECULE>
CCSc1nc(N=Cc2ccccc2O)c2cn[nH]c2n1

>  <ASSAY_SYSTEM>
SW-620 colon

>  <READOUT_NAME>
TGI

>  <EXPERIMENTAL_VALUE>
> 100 µM

$$$$
>  <MOLECULE>
COc1cc(/C=C2\CCCCC3=C2N=C2SC(C)=CN2C3c2cc(OC)c(OC)c(OC)c2)cc(OC)c1OC (stereo unspecified)

>  <ASSAY_SYSTEM>
SW-620 colon

>  <READOUT_NAME>
TGI

>  <EXPERIMENTAL_VALUE>
> 100 µM

$$$$
>  <MOLECULE>
Cc1nc2ccccc2c(-n2cccn2)c1CCn1cccn1

>  <ASSAY_SYSTEM>
SW-620 colon

>  <READOUT_NAME>
TGI

>  <EXPERIMENTAL_VALUE>
> 100 µM

$$$$
>  <MOLECULE>
NC(=S)N/N=C/c1ncccc1O

>  <ASSAY_SYSTEM>
SW-620 colon

>  <READOUT_NAME>
TGI

>  <EXPERIMENTAL_VALUE>
> 839 µM

$$$$

What value of measured TGI is listed for Cc1cc(C(=O)CSC(=S)SC(C)(C)C)ccc1Cl ?
68.3 µM

###

test system: NCI-H23 lung; test: NCI tumour cell line growth inhibition, 48 h
Below, each entry is listed with its recorded TGI.

Sample answers from the record:
>  <COMPOUND>
CNc1[nH]c(=S)nc2sc3c(c12)CCCC3

>  <ASSAY_SYSTEM>
NCI-H23 lung

>  <READOUT_NAME>
TGI

>  <EXPERIMENTAL_VALUE>
> 75 µM

$$$$
>  <COMPOUND>
CCSc1nc(N=Cc2ccccc2O)c2cn[nH]c2n1

>  <ASSAY_SYSTEM>
NCI-H23 lung

>  <READOUT_NAME>
TGI

>  <EXPERIMENTAL_VALUE>
34.9 µM

$$$$
>  <COMPOUND>
Cc1ccc(/C=C2/N=C(N/N=C\C(O)C(O)C(O)C(O)CO)NC2=O)cc1 (stereo unspecified)

>  <ASSAY_SYSTEM>
NCI-H23 lung

>  <READOUT_NAME>
TGI

>  <EXPERIMENTAL_VALUE>
> 100 µM

$$$$

What value of measured TGI is listed for COc1ccc2oc(=N)c(C(=O)Nc3ccccc3)cc2c1 ?
51.8 µM

What value of measured TGI is listed for [N-]=[N+]=NC1(c2ccccc2)C(=O)c2cccc3c2N(CCC3)C1=O (stereo unspecified) ?
> 100 µM

What value of measured TGI is listed for C=C1C(=O)[C@@]23CC[C@@H]4[C@@]5(C)CCC[C@@]4(OC5=O)[C@@]2(C)CC[C@@H]1C3 ?
4.49 µM

What value of measured TGI is listed for COc1c(C)c(OCC=C(C)C)cc(CO)c1CO ?
> 100 µM

What value of measured TGI is listed for O=Cc1cc2c(cc1-c1cc3c(cc1C=O)OCO3)OCO2 ?
> 100 µM

What value of measured TGI is listed for CC[C@@H]1NC(C(=O)OC)Cc2c1[nH]c1ccccc21 (stereo partly specified) ?
> 100 µM

What value of measured TGI is listed for Nc1ncnc2c1ccn2C/C=C/CO ?
> 100 µM

What value of measured TGI is listed for CCOC(=O)C(NC(=O)CC)(N1CCN(c2cc3c(cc2F)c(=O)c(C(=O)O)cn3C2CC2)CC1)C(F)(F)F (stereo unspecified) ?
> 100 µM
